Test system: E. coli EQASmcr-3 (EQAS 2017 2013-SQ352)
Format: cell-based, Escherichia coli
Experimental Parameters: rifampicin concentration in the combination giving the lowest FICi; E. coli EQASmcr-3
Peptide text beside a SMILES is read from it.
Endpoint Name: MSCrif (µg/mL)
Value expressed in µg/mL; do not type the unit.

CC[C@H](C)[C@H](NC(=O)[C@H](Cc1c[nH]c2ccccc12)NC(=O)[C@H](CCCCN)NC(=O)[C@H](CCCCN)NC(=O)[C@H](CC(C)C)NC(=O)[C@H](CCCNC(=N)N)NC(=O)[C@H](Cc1ccccc1)NC(=O)[C@@H](N)C(C)C)C(=O)N[C@@H](CCC(N)=O)C(=O)N[C@@H](CCCCN)C(=O)N[C@H](C(=O)N[C@@H](C)C(N)=O)C(C)C [peptide 19] (H-VFRLKKWIQKVA-NH2) : 0.125

Hi! What's the reported MSCrif for CC[C@H](C)[C@H](NC(=O)[C@@H](NC(=O)[C@H](CCCCN)NC(=O)[C@H](CCC(N)=O)NC(=O)[C@@H](NC(=O)[C@H](C)NC(=O)[C@H](CCCCN)NC(=O)[C@H](CCCCN)NC(=O)[C@H](CC(C)C)NC(=O)[C@H](CCCNC(=N)N)NC(=O)[C@H](Cc1ccccc1)NC(=O)[C@@H](N)C(C)C)[C@@H](C)CC)C(C)C)C(N)=O [peptide 14] (H-VFRLKKAIQKVI-NH2) on E. coli EQASmcr-3 (EQAS 2017 2013-SQ352)?
0.125

Lookup CC[C@H](C)[C@H](NC(=O)[C@@H](NC(=O)[C@H](CCCCN)NC(=O)[C@H](CCC(N)=O)NC(=O)[C@@H](NC(=O)[C@H](Cc1c[nH]c2ccccc12)NC(=O)[C@H](CCCCN)NC(=O)[C@H](CCCCN)NC(=O)[C@H](CC(C)C)NC(=O)[C@H](CCCNC(=N)N)NC(=O)[C@H](Cc1ccccc1)NC(=O)[C@@H](N)C(C)C)[C@@H](C)CC)C(C)C)C(N)=O [peptide 6] (H-VFRLKKWIQKVI-NH2)
0.125

###

Test system: E. coli BW25113
Assay Text: microbe, parasite or virus in culture
Type: cell-based, Escherichia coli
Experimental Parameters: vancomycin concentration in the combination giving the lowest FICi; E. coli BW25113
Bridge positions count the residues as written; N and C are the ends. Square brackets hold non-standard residues; d marks the D form. Peptide text beside a SMILES is read from it. Dab = NCC[C@H](N)C(=O)O
Endpoint Name: MSCvanco (µg/mL)
Value expressed in µg/mL; do not type the unit.

// worked examples, MSCvanco included
CC[C@H](C)[C@H](NC(=O)[C@@H](NC(=O)[C@H](CCCCN)NC(=O)[C@H](CCC(N)=O)NC(=O)[C@@H](NC(=O)[C@H](Cc1c[nH]c2ccccc12)NC(=O)[C@H](CCCCN)NC(=O)[C@H](CCCCN)NC(=O)[C@H](CC(C)C)NC(=O)[C@H](C)NC(=O)[C@H](Cc1ccccc1)NC(=O)[C@@H](N)C(C)C)[C@@H](C)CC)C(C)C)C(N)=O [peptide 10] (H-VFALKKWIQKVI-NH2) : 12.5
CC[C@H](C)[C@H](NC(=O)[C@@H](NC(=O)[C@H](CCCCN)NC(=O)[C@H](CCC(N)=O)NC(=O)[C@@H](NC(=O)[C@H](C)NC(=O)[C@H](CCCCN)NC(=O)[C@H](CCCCN)NC(=O)[C@H](CC(C)C)NC(=O)[C@H](CCCNC(=N)N)NC(=O)[C@H](Cc1ccccc1)NC(=O)[C@@H](N)C(C)C)[C@@H](C)CC)C(C)C)C(N)=O [peptide 14] (H-VFRLKKAIQKVI-NH2) : 50
CC(C)C[C@@H]1NC(=O)[C@@H](Cc2ccccc2)NC(=O)[C@H](CCN)NC(=O)[C@@H](NC(=O)[C@H](CCN)NC(=O)[C@@H](N)[C@@H](C)O)CCNC(=O)[C@H]([C@@H](C)O)NC(=O)[C@H](CCN)NC(=O)[C@H](CCN)NC1=O [PMBN, polymyxin B nonapeptide, reference compound] (H-T[Dab][Dab][Dab][dF]L[Dab][Dab]T; lactam 3-C (inferred); N-terminus assumed) : 50

// query MSCvanco value for entry CC[C@H](C)[C@H](NC(=O)[C@@H](NC(=O)[C@H](CCCCN)NC(=O)[C@H](CCC(N)=O)NC(=O)[C@@H](NC(=O)[C@H](Cc1c[nH]c2ccccc12)NC(=O)[C@H](CCCCN)NC(=O)[C@H](CCCCN)NC(=O)[C@H](CC(C)C)NC(=O)[C@H](CCCNC(=N)N)NC(=O)[C@H](Cc1ccccc1)NC(=O)[C@@H](N)C(C)C)[C@@H](C)CC)C(C)C)C(N)=O [peptide 6] (H-VFRLKKWIQKVI-NH2)
25

###

System: E. coli EQASmcr-1 (EQAS 2016 412016126)
Assay type: cell-based, Escherichia coli
Experimental Parameters: peptide concentration in the combination with rifampicin giving the lowest FICi; E. coli EQASmcr-1
Method: All peptides were screened for antimicrobial activity against E. coli BW25113, E. coli ATCC25922, and E. coli W3110. […] Two 96-well plates were required per compound. […] After incubation for 20 h at 37 °C while shaking, the breathable seals were removed and the density of the bacterial suspensions measured at 600 nm (OD600) using a Tecan Spark plate reader. […] The FICi was calculated using Equation (1) with a FICi ≤ 0.5 indicating synergy. […]
Peptide text beside a SMILES is read from it.
Endpoint Name: MSCpeptide (µg/mL)
Value expressed in µg/mL; do not type the unit.

Hi! What's the reported MSCpeptide for CC[C@H](C)[C@H](NC(=O)[C@@H](NC(=O)[C@H](CCCCN)NC(=O)[C@H](CCC(N)=O)NC(=O)[C@@H](NC(=O)[C@H](C)NC(=O)[C@H](CCCCN)NC(=O)[C@H](CCCCN)NC(=O)[C@H](CC(C)C)NC(=O)[C@H](CCCNC(=N)N)NC(=O)[C@H](Cc1ccccc1)NC(=O)[C@@H](N)C(C)C)[C@@H](C)CC)C(C)C)C(N)=O [peptide 14] (H-VFRLKKAIQKVI-NH2) on E. coli EQASmcr-1 (EQAS 2016 412016126)?
12.5

###

Tested on: E. coli EQASmcr-2 (EQAS 2016 KP37)
Format: cell-based, Escherichia coli
Experimental Parameters: peptide alone; E. coli EQASmcr-2
Protocol: All peptides were screened for antimicrobial activity against E. coli BW25113, E. coli ATCC25922, and E. coli W3110. […] Two 96-well plates were required per compound. […] After incubation for 20 h at 37 °C while shaking, the breathable seals were removed and the density of the bacterial suspensions measured at 600 nm (OD600) using a Tecan Spark plate reader. […] The FICi was calculated using Equation (1) with a FICi ≤ 0.5 indicating synergy. […]
Peptide text beside a SMILES is read from it.
Endpoint Name: MICpeptide (µg/mL)
Value expressed in µg/mL; do not type the unit.

// worked examples, MICpeptide included
CC[C@H](C)[C@H](NC(=O)[C@@H](NC(=O)[C@H](CCCCN)NC(=O)[C@H](CCC(N)=O)NC(=O)[C@@H](NC(=O)[C@H](Cc1c[nH]c2ccccc12)NC(=O)[C@H](CCCCN)NC(=O)[C@H](CCCCN)NC(=O)[C@H](CC(C)C)NC(=O)[C@H](CCCNC(=N)N)NC(=O)[C@H](Cc1ccccc1)NC(=O)[C@@H](N)C(C)C)[C@@H](C)CC)C(C)C)C(N)=O [peptide 6] (H-VFRLKKWIQKVI-NH2) : 100
CC[C@H](C)[C@H](NC(=O)[C@@H](NC(=O)[C@H](CCCCN)NC(=O)[C@H](CCC(N)=O)NC(=O)[C@@H](NC(=O)[C@H](Cc1c[nH]c2ccccc12)NC(=O)[C@H](CCCCN)NC(=O)[C@H](CCCCN)NC(=O)[C@H](CC(C)C)NC(=O)[C@H](C)NC(=O)[C@H](Cc1ccccc1)NC(=O)[C@@H](N)C(C)C)[C@@H](C)CC)C(C)C)C(N)=O [peptide 10] (H-VFALKKWIQKVI-NH2) : 100

In the following, a different compound is considered.
// query MICpeptide value for entry CC[C@H](C)[C@H](NC(=O)[C@H](Cc1c[nH]c2ccccc12)NC(=O)[C@H](CCCCN)NC(=O)[C@H](CCCCN)NC(=O)[C@H](CC(C)C)NC(=O)[C@H](CCCNC(=N)N)NC(=O)[C@H](Cc1ccccc1)NC(=O)[C@@H](N)C(C)C)C(=O)N[C@@H](CCC(N)=O)C(=O)N[C@@H](CCCCN)C(=O)N[C@H](C(=O)N[C@@H](C)C(N)=O)C(C)C [peptide 19] (H-VFRLKKWIQKVA-NH2)
200

###

Tested on: E. coli EQASmcr-1 (EQAS 2016 412016126)
Format: cell-based, Escherichia coli
Experimental Parameters: peptide concentration in the combination with rifampicin giving the lowest FICi; E. coli EQASmcr-1
Peptide text beside a SMILES is read from it.
MSCpeptide by entry:
Value expressed in µg/mL; do not type the unit.

// worked examples, MSCpeptide included
CC[C@H](C)[C@H](NC(=O)[C@@H](NC(=O)[C@H](CCCCN)NC(=O)[C@H](CCC(N)=O)NC(=O)[C@@H](NC(=O)[C@H](Cc1c[nH]c2ccccc12)NC(=O)[C@H](CCCCN)NC(=O)[C@H](CCCCN)NC(=O)[C@H](CC(C)C)NC(=O)[C@H](CCCNC(=N)N)NC(=O)[C@H](Cc1ccccc1)NC(=O)[C@@H](N)C(C)C)[C@@H](C)CC)C(C)C)C(N)=O [peptide 6] (H-VFRLKKWIQKVI-NH2) : 6.25
CC[C@H](C)[C@H](NC(=O)[C@@H](NC(=O)[C@H](CCCCN)NC(=O)[C@H](CCC(N)=O)NC(=O)[C@@H](NC(=O)[C@H](Cc1c[nH]c2ccccc12)NC(=O)[C@H](CCCCN)NC(=O)[C@H](CCCCN)NC(=O)[C@H](CC(C)C)NC(=O)[C@H](C)NC(=O)[C@H](Cc1ccccc1)NC(=O)[C@@H](N)C(C)C)[C@@H](C)CC)C(C)C)C(N)=O [peptide 10] (H-VFALKKWIQKVI-NH2) : 12.5

In the following, a different compound is considered.
Hi! What's the reported MSCpeptide for CC[C@H](C)[C@H](NC(=O)[C@H](Cc1c[nH]c2ccccc12)NC(=O)[C@H](CCCCN)NC(=O)[C@H](CCCCN)NC(=O)[C@H](CC(C)C)NC(=O)[C@H](CCCNC(=N)N)NC(=O)[C@H](Cc1ccccc1)NC(=O)[C@@H](N)C(C)C)C(=O)N[C@@H](CCC(N)=O)C(=O)N[C@@H](CCCCN)C(=O)N[C@H](C(=O)N[C@@H](C)C(N)=O)C(C)C [peptide 19] (H-VFRLKKWIQKVA-NH2) on E. coli EQASmcr-1 (EQAS 2016 412016126)?
12.5

# credit: paper PMC8037310
